Recorded TGI values for a group of compounds are listed next.
# Test system: MALME-3M melanoma
# Method: NCI tumour cell line growth inhibition, 48 h
Assay Endpoint: TGI

compound=CC[P+]1(c2ccccc2)CCCCC1 assay_endpoint=TGI recorded_measurement="> 100 µM"
compound="COc1ccc(C2=NN(C(=O)c3ccc(Cl)cc3)C(O)(c3cc(F)c(Cl)cc3Cl)C2)cc1 (stereo unspecified)" assay_endpoint=TGI recorded_measurement="> 100 µM"
compound=Cn1cc(-c2nc(-c3cn(C)c4ncccc34)cs2)c2ccccc21 assay_endpoint=TGI recorded_measurement="5.64 µM"
compound=O=C(O)c1[nH]c2c([N+](=O)[O-])cc([N+](=O)[O-])cc2c1C(=O)O assay_endpoint=TGI recorded_measurement="> 100 µM"
compound=Nc1nc(N)c(-c2ccc(Cl)c(Cl)c2)c(CP(Cl)(Cl)(Cl)Br)n1 assay_endpoint=TGI recorded_measurement="72.1 µM"
compound=O=c1c2ccccc2nc(N/N=C/c2ccc(Cl)cc2)n1-c1ccccc1 assay_endpoint=TGI recorded_measurement="> 100 µM"

====

# Test system: NCI/ADR-RES ovarian
# Method: NCI tumour cell line growth inhibition, 48 h
# TGI listing for each entry below
Assay Endpoint: TGI (µM)

molecule="Cc1cn(C2CC(O)C(COC(N)=O)O2)c(=O)[nH]c1=O (stereo not drawn)" measurement_target="NCI/ADR-RES ovarian" assay_endpoint=TGI readout_relation=> recorded_measurement=100
molecule=CN(C)C/C=C/C(=O)Nc1cc2c(Nc3cccc(Cl)c3F)ncnc2cc1OCCOC(F)F measurement_target="NCI/ADR-RES ovarian" assay_endpoint=TGI readout_relation== recorded_measurement=7.74
molecule=Oc1ccc(/C=N/NC(=S)Nc2cccnc2)nc1 measurement_target="NCI/ADR-RES ovarian" assay_endpoint=TGI readout_relation== recorded_measurement=9.59
molecule="COC1OC(Cn2cc([N+](=O)[O-])nc2C)C(O)C(O)C1O (stereo not drawn)" measurement_target="NCI/ADR-RES ovarian" assay_endpoint=TGI readout_relation=> recorded_measurement=100
molecule="CCC(C(=O)[C@@H](C)[C@@H](O)[C@H](C)[C@@H]1O[C@@H]([C@@H](CC)C(=O)ONC(=O)c2ccccc2)CC[C@@H]1C)[C@H]1O[C@]2(C=CC(=O)[C@]3(CC[C@@](C)([C@H]4CC[C@](O)(CC)[C@H](C)O4)O3)O2)[C@H](C)C[C@@H]1C (stereo partly drawn)" measurement_target="NCI/ADR-RES ovarian" assay_endpoint=TGI readout_relation== recorded_measurement=2.28
molecule="CC(C)CC1NC(=O)CCC(NC(=O)C(Cc2ccc(O)cc2)NC(=O)OCc2ccccc2)C(=O)NC(Cc2ccccc2)C(=O)NC(Cc2ccccc2)NC1=O (stereo not drawn)" measurement_target="NCI/ADR-RES ovarian" assay_endpoint=TGI readout_relation=> recorded_measurement=100
molecule=COc1ccc2nc3ccccc3c(NCc3ccccc3)c2c1 measurement_target="NCI/ADR-RES ovarian" assay_endpoint=TGI readout_relation== recorded_measurement=6.69
molecule="CC1(C)CCC[C@@]2(C)C1CC[C@@]1(CO1)[C@@H]2/C=C\\C(C=O)CC=O (stereo partly drawn)" measurement_target="NCI/ADR-RES ovarian" assay_endpoint=TGI readout_relation=> recorded_measurement=100

====

Recorded TGI values for a group of compounds are listed next.
# Test system: HL-60(TB) leukemia
# Method: NCI tumour cell line growth inhibition, 48 h
Assay Endpoint: TGI

compound="COc1cc(C(=O)OC2CC34CCNC35CC(OC5(OC)C2O)c2cc3c(cc24)OCO3)ccc1O (stereo not drawn)" recorded_measurement="> 100 µM"
compound=CCc1cccc(NC(=O)c2cc(/C=C/c3ccccc3)[nH]c(=S)n2)c1 recorded_measurement="> 100 µM"
compound=N[C@H]1CCN(c2c(F)cc3c(=O)c(C(=O)O)cn4c3c2Oc2c-4ccc3c2ccc2ccccc23)C1 recorded_measurement="> 85.6 µM"
compound=CCOC(=O)c1csc(-c2cn(C)c3c2C(=O)C(OC)=CC3=O)n1 recorded_measurement="> 100 µM"
compound="COC(=O)C(C#N)C1NC(=O)c2ccccc21 (stereo not drawn)" recorded_measurement="> 100 µM"
compound="COc1ccc(C2=NN(C(=O)c3ccc(Cl)cc3)C(O)(c3cc(F)c(Cl)cc3Cl)C2)cc1 (stereo not drawn)" recorded_measurement="> 100 µM"
compound=c1ccc(/C(=N\Nc2nc3ccccc3s2)c2ccccn2)cc1 recorded_measurement="6.54 µM"
compound=COC(=O)/C(C#N)=C/c1cc(C(C)(C)C)c(O)c(C(C)(C)C)c1 recorded_measurement="4.47 µM"
